Origin of measurements: patent US20210130436A1

Attribute: MFI at 33.3 nM
Molecular target: T1, CD28 on Jurkat/IL2 reporter cells (human, UniProt P10747 19-220)
T1 construct: whole, on cells; Endogenous CD28 of Jurkat cells; also called Jurkats (CD28)
Test: flow cytometry, Jurkat cells (CD28)

- binder: "variant CD80 IgV-Fc E35D/L97R (Fc fusion, not shown: a dimerising Fc or GST) VIHVTKEVKEVATLSCGHNVSVEELAQTRIYWQKDKKMVLTMMSGDMNIWPEYKNRTIFDITNNLSIVILALRPSDEGTYECVVLKYEKDAFKREHRAEVTLSVKAD"
  MFI at 33.3 nM (MFI): 44.6
- binder: "variant CD80 IgV-Fc E35D/M47V/T62S/L85Q (Fc fusion, not shown: a dimerising Fc or GST) VIHVTKEVKEVATLSCGHNVSVEELAQTRIYWQKDKKMVLTMMSGDVNIWPEYKNRTIFDISNNLSIVILALRPSDEGTYECVVQKYEKDAFKREHLAEVTLSVKAD"
  MFI at 33.3 nM (MFI): 99.4
- binder: "variant CD80 IgV-Fc E35D/M47L/A71G/L85M (Fc fusion, not shown: a dimerising Fc or GST) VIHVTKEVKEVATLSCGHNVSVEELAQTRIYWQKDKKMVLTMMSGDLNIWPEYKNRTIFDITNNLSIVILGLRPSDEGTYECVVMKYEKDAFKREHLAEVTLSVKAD"
  MFI at 33.3 nM (MFI): 199
- binder: "variant CD80 IgV-Fc E35D/N48K/L72V (Fc fusion, not shown: a dimerising Fc or GST) VIHVTKEVKEVATLSCGHNVSVEELAQTRIYWQKDKKMVLTMMSGDMKIWPEYKNRTIFDITNNLSIVILAVRPSDEGTYECVVLKYEKDAFKREHLAEVTLSVKAD"
  MFI at 33.3 nM (MFI): 582
